The measured values listed here are drawn from patent US20220073643A1.

measurement target: human Claudin18.2 (human)
assay protocol: cell-based or functional assay
Below is a list of entries, each paired with its recorded CDC % Relative activity value.
Quick reminder: number only, in %, skip the unit.

Observe how each entry below is paired with its result.
chimeric 194D3B2 (antibody, human IgG1, kappa, V domains shown, chimeric, human IgG1/kappa constant regions) VH: QAYLQQSGAELVRSGASVKMSCKASGYPFTSYNMHWVKQTPGQGLEWVGYIYPGNGGTNYNQKFRDKATLTADTSSSTAYMQISRLTSDDSAVYFCLTGRGFAYWGQGTLVTVSA VL: DIVMTQSPSSLIVTPGERVTMSCKSSQSLLNSGNQKNYLTWYQQKPGQPPKLLIYRASTRESGVPDRFTGSGSGTDFTLTISSVQAEDLAVYYCQNDYSYPLTFGIGTKLELKR; 793
chimeric 412B6E4 (antibody, human IgG1, kappa, V domains shown, chimeric, human IgG1/kappa constant regions; also called 412B6E4-Chimeric) VH: DVQLVESGGGLVQPGGSRKLSCAASGFTFSSFGVHWVRQAPEKGLEWVAYISSGSSTIYYAHSVKGRFTISRDNPKNTLFLQMTSLGSEDTATYYCARFYYGNSFAYWGQGTLVTVSA VL: DIVMTQSPSSLTVTAGEKVTMSCKSSQSLLNSGNQKNYLTWYQQKPGQPPKMLIYWASTRESGVPDRFTGSGSGTDFTLTISSVQAEDLAVYYCQNAYTYPLTFGAGTRLELKR; 2020

Turning to the following binder.
Given chimeric 185F2G12 (antibody, human IgG1, kappa, V domains shown, chimeric, human IgG1/kappa constant regions) VH: QAYLQQSGAELVRSGASVKMSCKASGYTFTSYNMHWVRQTPGQGLEWIGYIYPGNGGTNYSQKFKGKASLTADTSSTTAYMQISSLTSEDSAVYFCATGRGFAYWGQGTLVTVSA VL: DIVMTQSPSSLTVTAGEKVTLSCKSSQSLFNTGNQKNYLTWYQQKPGQPPKLLIFRASTRESGVPDRFTGSGFGTDFTLTISSVQAEDLAVYYCQNDFSYPLTFGAGTKLELKR , respond with its CDC % Relative activity.
2100
